Target: T1, soluble form of human CD16A (sCD16A) (human, UniProt P08637 17-203)
T1 construct: CD16A gene truncated just prior to the transmembrane region, expressed in HEK-293; The last seven residues come from vector pCDNA3.1; also called sFcRIIIa
T1 sequence (P08637 other isoform, or with tags, fused parts or gaps limits assumed): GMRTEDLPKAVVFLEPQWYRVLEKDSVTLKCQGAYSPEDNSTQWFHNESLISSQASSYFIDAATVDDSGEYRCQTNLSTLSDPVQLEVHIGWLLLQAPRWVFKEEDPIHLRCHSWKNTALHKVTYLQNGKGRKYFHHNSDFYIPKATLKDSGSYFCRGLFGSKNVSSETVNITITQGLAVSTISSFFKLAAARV
Experiment: ELISA, sCD16A captured by mAb LNK-16
measured.endpoint: binding result

hu3G8VH-29/hu3G8VL-1 (antibody, V domains shown, Human Cγ1/Cκ constant regions; HEK-293) VH: QVTLRESGPALVKPTQTLTLTCTFSGFSLSTSGVGVGWIRQPPGKALEWLAHIWWDDDKRYSPSLKSRLTISKDTSKNQVVLTMTNMDPVDTATYYCAHINPAYFDYWGQGTLVTVSS VL: DIVMTQSPDSLAVSLGERATINCKASQSVDFDGDSFMNWYQQKPGQPPKLLIYTTSNLESGVPDRFSGSGSGTDFTLTISSLQAEDVAVYYCQQSNEDPYTFGQGTKLEIK :: binds
hu3G8VH-28/hu3G8VL-1 (antibody, V domains shown, Human Cγ1/Cκ constant regions; HEK-293) VH: QVTLRESGPALVKPTQTLTLTCTFSGFSLSTSGVGVGWIRQPPGKALEWLAHIWWDDDKRYSPSLKSRLTISKDTSKNQVVLTMTNMDPVDTATYYCAAINPAYFDYWGQGTLVTVSS VL: DIVMTQSPDSLAVSLGERATINCKASQSVDFDGDSFMNWYQQKPGQPPKLLIYTTSNLESGVPDRFSGSGSGTDFTLTISSLQAEDVAVYYCQQSNEDPYTFGQGTKLEIK :: binds
